- tested target: Toll-like receptor 2 (Homo sapiens, UniProt O60603)
- Sequence (O60603 whole entry): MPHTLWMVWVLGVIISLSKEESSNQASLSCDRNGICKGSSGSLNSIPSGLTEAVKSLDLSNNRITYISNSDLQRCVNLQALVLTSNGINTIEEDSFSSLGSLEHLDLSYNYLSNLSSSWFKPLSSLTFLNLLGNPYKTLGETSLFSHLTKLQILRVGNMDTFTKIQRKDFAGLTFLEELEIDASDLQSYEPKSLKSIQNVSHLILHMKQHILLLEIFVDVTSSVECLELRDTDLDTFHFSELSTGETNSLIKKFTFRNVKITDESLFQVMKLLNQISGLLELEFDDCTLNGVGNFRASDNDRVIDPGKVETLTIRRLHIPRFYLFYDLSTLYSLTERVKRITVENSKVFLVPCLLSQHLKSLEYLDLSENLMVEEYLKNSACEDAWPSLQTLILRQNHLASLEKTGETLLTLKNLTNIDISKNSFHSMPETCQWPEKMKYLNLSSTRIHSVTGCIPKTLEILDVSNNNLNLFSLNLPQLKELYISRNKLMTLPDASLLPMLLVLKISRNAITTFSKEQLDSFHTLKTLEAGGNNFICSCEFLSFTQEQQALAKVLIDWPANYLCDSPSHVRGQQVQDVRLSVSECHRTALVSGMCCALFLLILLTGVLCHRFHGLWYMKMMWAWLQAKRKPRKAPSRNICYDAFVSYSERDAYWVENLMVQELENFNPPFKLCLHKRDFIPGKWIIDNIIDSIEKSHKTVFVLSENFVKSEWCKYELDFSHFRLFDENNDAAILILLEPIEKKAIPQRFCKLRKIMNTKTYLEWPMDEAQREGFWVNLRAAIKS
- assay method text: Antagonist activity at human TLR2 in HEK-Blue hTLR2 cells assessed as inhibition of Pam3CSK4-induced receptor activation preincubated with Pam3CSK4 followed by compound addition and measured 24 hrs by Quanti-Blue based SEAP reporter gene assay
Threshold 4 µM. IC50 below it: yes (1). IC50 at it or above: no (0).

Known results for molecules:
1. O=[N+]([O-])/C=C/c1cccc(Oc2ccccc2)c1: yes (1)
2. O=[N+]([O-])/C=C/c1cccc(OCc2ccccc2)c1: yes (1)
3. O=[N+]([O-])/C=C/c1cccc(OCc2ccc3ccccc3c2)c1: no (0)
4. CCOC(=O)c1ccc(COc2cccc(/C=C/[N+](=O)[O-])c2)nc1: no (0)
5. O=[N+]([O-])/C=C/c1ccccc1Oc1ccccc1: no (0)

# input Please state whether IC50 is below 4 µM for "O=[N+]([O-])/C=C/c1cccc(OCc2ccncc2)c1"
# output yes (1)

# input Please check: IC50 for "COc1ccc(COc2cccc(/C=C/[N+](=O)[O-])c2)cc1" , strictly under 4 µM or not?
# output no (0)

# input For this molecule, is IC50 lower than 4 µM? "O=[N+]([O-])/C=C/c1cccc(OCc2ccc(F)cc2)c1"
# output no (0)

# input Consider "O=[N+]([O-])/C=C/c1cccc(OCc2ccccn2)c1" . Does its IC50 lie strictly below 4 µM?
# output yes (1)

# input Given the entry "O=[N+]([O-])/C=C/c1cccc(OCc2ccc(Cl)cc2)c1" , would its reported IC50 be below 4 µM?
# output no (0)

# input Lab note: confirm whether the reported IC50 for this molecule is below 4 µM, equality not counting. molecule: "O=[N+]([O-])/C=C/c1cccc(Nc2ncccn2)c1"
# output yes (1)

###

- tested target: UniProt O60603
- assay method text: Antagonist activity at human TLR2 in HEK-Blue hTLR2 cells assessed as inhibition of Pam3CSK4-induced receptor activation preincubated with Pam3CSK4 followed by compound addition and measured 24 hrs by Quanti-Blue based SEAP reporter gene assay
result type: IC50 (µM)
Give bare numbers, in µM.

1) O=[N+]([O-])/C=C/c1cccc(Oc2ccccn2)c1: 1.2

Give one value of IC50 per listed molecule.
1. O=[N+]([O-])/C=C/c1cccc(OCC2CC2)c1
2. CCCCOC(=O)c1ccc(COc2cccc(/C=C/[N+](=O)[O-])c2)nc1

# output
1. 2.4
2. 3.1

###

- assay method text: Cytotoxicity against HEK-Blue hTLR4 cells assessed as lethal dose measured after 24 hrs by CCK-8 assay
- Assay type: toxicity, cell-based
- study conditions: human, read-out: LD50
result type: CC50 at 24 h
Include the unit right after the number.

# input Return value of CC50 at 24 h for input "O=[N+]([O-])/C=C/c1cccc(Nc2ccccn2)c1" , no commentary.
# output 28 µM

###

- assay method text: Cytotoxicity against HEK-Blue hTLR2 cells assessed as lethal dose measured after 24 hrs by CCK-8 assay
- Assay type: toxicity, cell-based
- study conditions: human, read-out: LD50
result type: CC50 at 24 h (µM)
One number for each entry, in µM.

# input State its CC50 at 24 h: "O=[N+]([O-])/C=C/c1cccc(Nc2ccccn2)c1"
# output 28
